Recorded values, source the supplement of paper PMC12533247.

Tested on: HSV-1 K26-GFP infected primary human skin cells
ASSAY OVERVIEW: % change of HSV-1 GFP signal vs untreated infected cells; higher = less antiviral inhibition
CONDITIONS: 20 µM; cell type: primary dermal fibroblasts; donor: 4; time (h post infection): 48
Give measured % change of HSV-1 GFP signal for each item. Keep answers brief.
Please format your answer as a value with the unit trailing.

CC1(C)CC(=O)c2c(C(F)(F)F)nn(-c3ccc(C(N)=O)c(N[C@H]4CC[C@H](O)CC4)c3)c2C1
-99.7%
Cc1nc(N(C)C(=O)Cc2ccc(-c3ccccn3)cc2)sc1S(N)(=O)=O
-99.7%
CC(C)c1cnn2c(NCc3ccccc3-n3cccn3)nc(OC3CCCNC3)nc12 (stereo not drawn)
-99.9%
Cc1cccc(C)c1N(CC(=O)Nc1ccc(-c2ncon2)cc1)C(=O)C1CCS(=O)(=O)CC1
-99.6%
Nc1ccn([C@@H]2O[C@H](CO)[C@@H](O)C2(F)F)c(=O)n1
-99.9%
COc1ccc(-c2nc(N3CCOCC3)c3sc(CN(C)c4ncc(C(=O)NO)cn4)cc3n2)cn1 [Fimepinostat]
-9.02%
O=C(/C=C\n1cnc(-c2cc(C(F)(F)F)cc(C(F)(F)F)c2)n1)NNc1ccccn1 [Verdinexor]
-21.8%

Here is the next item to consider.
Prompt: Need % change of HSV-1 GFP signal, item O=C(Nc1ccc([N+](=O)[O-])cc1Cl)c1cc(Cl)ccc1O [Niclosamide]
Response: -99.9%
